So I've got a bunch of molecules here, and I need their pIC50 values.
# Tested on: HCC70 basal triple-negative breast cancer (TNBC) cell line
# TEST NAME: Cytotoxicity, resazurin assay, 96 h, HCC70
# Assay type: cell-based
# ASSAY SETUP: Homo sapiens, HCC70, 96 h, HCC70 cells, 96 h, resazurin, triplicate; read-out: HCC70 (IC50 and SD)
Give bare numbers, as −log10 of the molar value.

>  <MOLECULE>
CC(=O)O[C@@H]1C[C@@]2(CO2)[C@]2(CC[C@@]3(C=COC3)O2)[C@]23CCC[C@](C)(C(=O)OC2)[C@H]13 [Compound 1, 13S-nepetaefolin]

>  <pIC50>
4.61

$$$$
>  <MOLECULE>
CC(=O)O[C@@H]1C[C@@H](C)[C@](O)(CCc2ccoc2)[C@]23CCC[C@](C)(C(=O)OC2)[C@H]13 [Compound 3, dubiin]

>  <pIC50>
3.89

$$$$

Alright, here's another molecule for you.
Could you tell me which pIC50 is on file for CC(=O)O[C@@H]1C[C@@]2(CO2)[C@](O)(CCc2ccoc2)[C@]23CCC[C@](C)(C(=O)OC2)[C@H]13 [Compound 4, nepetaefuran] ?
4.13
